Test system: NCI/ADR-RES complex spheroid viability
Assay: Anticancer human tumor NCI/ADR-RES cell line growth inhibition
Conditions: second compound 10 µM; first compound 0.316 µM; hits give low values
Returns the class for an entry based on its viability, T/C. Class ranges: lower band = under 10%, central band = from 10% up to 90%, upper band = 90% and over

Example cases with answers are listed next.
Compound	Category Label
CC1(C)CCC(CN2CCN(c3ccc(C(=O)NS(=O)(=O)c4ccc(NCC5CCOCC5)c([N+](=O)[O-])c4)c(Oc4cnc5[nH]ccc5c4)c3)CC2)=C(c2ccc(Cl)cc2)C1 + NC1CCC(NC2CC2c2ccccc2)CC1	upper band
COc1ccc([C@@H](O)c2cc(-c3ncnc4cc(N5CCOCC5)ccc34)c(F)cc2Cl)nn1 + NC1CC1c1ccc(-c2cccc(O)c2)cc1	central band
Nc1ncn(C2CC(O)C(CO)O2)c(=O)n1 (stereo not drawn) + NC1CCC(NC2CC2c2ccccc2)CC1	central band

Pending compound:
Query :: Which class does COc1cc(Nc2ncc3c(n2)-c2ccc(Cl)cc2C(c2c(F)cccc2OC)=NC3)ccc1C(=O)O + NC1CC1c1ccc(-c2cccc(O)c2)cc1 fall in?
Result :: central band

----------
System: NCI/ADR-RES complex spheroid viability
Assay: Anticancer human tumor NCI/ADR-RES cell line growth inhibition
Conditions: second compound 10 µM; first compound 0.03 µM; hits give low values
Each entry below lists one item and its recorded viability, T/C value.
Number only, in %; omit the unit.

Past entries and their recorded results:
Compound	Unit String	viability, T/C
COc1cc(C2c3cc4c(cc3C(OC3OC5COC(C)OC5C(O)C3O)C3COC(=O)C23)OCO4)cc(OC)c1O (stereo unspecified) + NC1CCC(NC2CC2c2ccccc2)CC1	%	92
NS(=O)(=O)OCC1CC(n2ccc3c(NC4CCc5ccccc54)ncnc32)CC1O (stereo unspecified) + NC1CCC(NC2CC2c2ccccc2)CC1	%	86.8
Nc1ccccc1NC(=O)c1ccc(CNC(=O)OCc2cccnc2)cc1 + NC1CCC(NC2CC2c2ccccc2)CC1	%	79.8

Kindly consider the entry below.
Query :: Consider the compound shown here: O=C(C=Cc1cccc(S(=O)(=O)Nc2ccccc2)c1)NO + NC1CCC(NC2CC2c2ccccc2)CC1 What is its recorded viability, T/C?
Result :: 47.6

----------
Test system: NCI/ADR-RES complex spheroid viability
Test: Anticancer human tumor NCI/ADR-RES cell line growth inhibition
Conditions: second compound 0.316 µM; first compound 3.16 µM; hits give low values
Each entry below lists one item and its recorded viability, T/C value.

Past entries and their recorded results:
> print(dat)
                                   molecule  recorded.result
1  O=C(c1cc(Cc2n[nH]c(=O)c3ccccc23)ccc1F)N1CCN(C(=O)C2CC2)CC1 + NC1CCC(NC2CC2c2ccccc2)CC1            96.2%
2  O=C(c1cc(Cc2n[nH]c(=O)c3ccccc23)ccc1F)N1CCN(C(=O)C2CC2)CC1 + NC1CC1c1ccc(-c2cccc(O)c2)cc1             106%
3  CC(C)c1c(-c2ccccc2)nc2c(C#N)c[nH]n2c1=O + NC1CC1c1ccc(-c2cccc(O)c2)cc1             109%

Kindly consider the entry below.
Query :: Consider the molecule shown here: CC1COCCN1c1cc(C2(S(C)(=N)=O)CC2)nc(-c2ccnc3[nH]ccc23)n1 (centres undefined) + NC1CC1c1ccc(-c2cccc(O)c2)cc1 What is its recorded viability, T/C?
Result :: 73.2%

----------
Each entry below lists one item and its recorded viability, T/C value.
Tested on: NCI/ADR-RES complex spheroid viability
Test: Anticancer human tumor NCI/ADR-RES cell line growth inhibition;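 further: spheroids exposed to compounds for 7 days; 100% = DMSO vehicle treated spheroids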
Conditions: second compound 3.16 µM; first compound 0.1 µM; hits give low values
Number only, in %; omit the unit.

> print(dat)
                                   compound  recorded.result
1  COc1cc(Nc2ncc3c(n2)-c2ccc(Cl)cc2C(c2c(F)cccc2OC)=NC3)ccc1C(=O)O + NC1CC1c1ccc(-c2cccc(O)c2)cc1             19.4

Query :: Consider the compound shown here: CC1COCCN1c1cc(-c2ccnn2C)c2ccnc(-c3ccn[nH]3)c2n1 (configuration not stated) + NC1CC1c1ccc(-c2cccc(O)c2)cc1 What is its recorded viability, T/C?
Result :: 2.63

Query :: Consider the compound shown here: CC(C)CC(NC(=O)CNC(=O)c1cc(Cl)ccc1Cl)B1OC(=O)CC(CC(=O)O)(C(=O)O)O1 (configuration not stated) + NC1CCC(NC2CC2c2ccccc2)CC1 What is its recorded viability, T/C?
Result :: 3.89

Query :: Consider the compound shown here: O=C(c1cc(Cc2n[nH]c(=O)c3ccccc23)ccc1F)N1CCN(C(=O)C2CC2)CC1 + NC1CCC(NC2CC2c2ccccc2)CC1 What is its recorded viability, T/C?
Result :: 102

Query :: Consider the compound shown here: COc1cc(Nc2ncc3c(n2)-c2ccc(Cl)cc2C(c2c(F)cccc2OC)=NC3)ccc1C(=O)O + NC1CCC(NC2CC2c2ccccc2)CC1 What is its recorded viability, T/C?
Result :: 19.1

Query :: Consider the compound shown here: Cn1ncnc1C1c2n[nH]c(=O)c3cc(F)cc(c23)NC1c1ccc(F)cc1 (configuration not stated) + NC1CCC(NC2CC2c2ccccc2)CC1 What is its recorded viability, T/C?
Result :: 105

Query :: Consider the compound shown here: O=C(C=Cn1cnc(-c2cc(C(F)(F)F)cc(C(F)(F)F)c2)n1)NNc1cnccn1 + NC1CC1c1ccc(-c2cccc(O)c2)cc1 What is its recorded viability, T/C?
Result :: 10.7

----------
Tested on: NCI/ADR-RES complex spheroid viability
Assay: Anticancer human tumor NCI/ADR-RES cell line growth inhibition; active = viability on the fitted dose curve at most 10% of control; inactive = the rest;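 further: spheroids exposed to compounds for 7 days; 100% = DMSO vehicle treated spheroids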
Details: second compound 3.16 µM; first compound 0.1 µM
Pick one and only one: yes (1) (active), no (0) (inactive)

Example cases with answers are listed next.
Molecule	Category Label
CC1COCCN1c1cc(C2(S(C)(=N)=O)CC2)nc(-c2ccnc3[nH]ccc23)n1 (stereo not given) + NC1CCC(NC2CC2c2ccccc2)CC1	no (0)
Nc1ncn(C2CC(O)C(CO)O2)c(=O)n1 (stereo not given) + NC1CC1c1ccc(-c2cccc(O)c2)cc1	no (0)
CC[C@@]1(O)C(=O)OCc2c1cc1n(c2=O)Cc2cc3c(CN(C)C)c(O)ccc3nc2-1 + NC1CCC(NC2CC2c2ccccc2)CC1	yes (1)
CC1(C)CCC(CN2CCN(c3ccc(C(=O)NS(=O)(=O)c4ccc(NCC5CCOCC5)c([N+](=O)[O-])c4)c(Oc4cnc5[nH]ccc5c4)c3)CC2)=C(c2ccc(Cl)cc2)C1 + NC1CC1c1ccc(-c2cccc(O)c2)cc1	no (0)

Pending molecule:
Query :: For this molecule, state the assay outcome: O=C(c1cc(Cc2n[nH]c(=O)c3ccccc23)ccc1F)N1CCN(C(=O)C2CC2)CC1 + NC1CC1c1ccc(-c2cccc(O)c2)cc1
Result :: no (0)

----------
Tested on: NCI/ADR-RES complex spheroid viability
Assay: Anticancer human tumor NCI/ADR-RES cell line growth inhibition; active means viability on the fitted dose curve at most 10% of control; inactive means the rest;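 further: spheroids exposed to compounds for 7 days; 100% = DMSO vehicle treated spheroids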
Details: second compound 10 µM; first compound 0.3 µM
Description: Multicellular complex tumor spheroid response to LSD1 Inhibitor Iadademstat in combination with a variety of drugs and investigational agents in selected tumor cell lines The current study was undertaken to assess response to LSD1 inhibitors in combination with standard-of-care drugs and investigational agents in solid tumor complex spheroid models as well as in the K-562 leukemia. […] Compounds. […] If the clinical Cmax for an agent had not been determined, the highest concentration tested was 10 microM. […]
Pick one and only one: true = active, false = inactive

Example cases with answers are listed next.
> print(dat)
                                   molecule                             test.target  category.label
1  O=C(C=Cc1cccc(S(=O)(=O)Nc2ccccc2)c1)NO + NC1CC1c1ccc(-c2cccc(O)c2)cc1  NCI/ADR-RES complex spheroid viability           false
2  Nc1ccn(C2OC(CO)C(O)C2(F)F)c(=O)n1 (centres undefined) + NC1CCC(NC2CC2c2ccccc2)CC1  NCI/ADR-RES complex spheroid viability            true
3  Nc1ccccc1NC(=O)c1ccc(CNC(=O)OCc2cccnc2)cc1 + NC1CC1c1ccc(-c2cccc(O)c2)cc1  NCI/ADR-RES complex spheroid viability           false

Pending molecule:
Query :: For this molecule, state the assay outcome: O=C(C=Cc1cccc(S(=O)(=O)Nc2ccccc2)c1)NO + NC1CCC(NC2CC2c2ccccc2)CC1
Result :: false

----------
System: NCI/ADR-RES complex spheroid viability
Experiment: Anticancer human tumor NCI/ADR-RES cell line growth inhibition;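 further: spheroids exposed to compounds for 7 days; 100% = DMSO vehicle treated spheroids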
Conditions: second compound 10 µM; first compound 0.00316 µM; hits give low values
From the text: Multicellular complex tumor spheroid response to LSD1 Inhibitor Iadademstat in combination with a variety of drugs and investigational agents in selected tumor cell lines The current study was undertaken to assess response to LSD1 inhibitors in combination with standard-of-care drugs and investigational agents in solid tumor complex spheroid models as well as in the K-562 leukemia. […] Compounds. […] If the clinical Cmax for an agent had not been determined, the highest concentration tested was 10 microM. […]
Each entry below lists one item and its recorded viability, T/C value.
Number only, in %; omit the unit.

Past entries and their recorded results:
> print(dat)
                                   compound  unit.string  recorded.result
1  CC1COCCN1c1cc(-c2ccnn2C)c2ccnc(-c3ccn[nH]3)c2n1 (configuration not stated) + NC1CCC(NC2CC2c2ccccc2)CC1            %             83.9
2  Nc1ncn(C2CC(O)C(CO)O2)c(=O)n1 (configuration not stated) + NC1CC1c1ccc(-c2cccc(O)c2)cc1            %             73.5
3  CC[C@@]1(O)C(=O)OCc2c1cc1n(c2=O)Cc2cc3c(CN(C)C)c(O)ccc3nc2-1 + NC1CCC(NC2CC2c2ccccc2)CC1            %             66.8

Query :: Query for NCI/ADR-RES complex spheroid viability: what viability, T/C does the record show for COc1cc(Nc2ncc3c(n2)-c2ccc(Cl)cc2C(c2c(F)cccc2OC)=NC3)ccc1C(=O)O + NC1CC1c1ccc(-c2cccc(O)c2)cc1 ?
Result :: 79.2

Query :: Query for NCI/ADR-RES complex spheroid viability: what viability, T/C does the record show for O=C(C=Cn1cnc(-c2cc(C(F)(F)F)cc(C(F)(F)F)c2)n1)NNc1cnccn1 + NC1CC1c1ccc(-c2cccc(O)c2)cc1 ?
Result :: 57.1

Query :: Query for NCI/ADR-RES complex spheroid viability: what viability, T/C does the record show for Cn1ncnc1C1c2n[nH]c(=O)c3cc(F)cc(c23)NC1c1ccc(F)cc1 (configuration not stated) + NC1CCC(NC2CC2c2ccccc2)CC1 ?
Result :: 102

Query :: Query for NCI/ADR-RES complex spheroid viability: what viability, T/C does the record show for Cn1ncnc1C1c2n[nH]c(=O)c3cc(F)cc(c23)NC1c1ccc(F)cc1 (configuration not stated) + NC1CC1c1ccc(-c2cccc(O)c2)cc1 ?
Result :: 90.5
